Tested on: IGROV-1
Assay: SRB colorimetric assay of cell growth and viability, IGROV-1
Assay type: cell-based, human
Settings: IGROV; 48 hours exposure
Where a SMILES comes first, the peptide text is derived from it. Bridges are numbered along the chain shown (N, C = ends). [ ]: non-standard residue; d: D form. The star is where a group is joined. 2Nal = N[C@@H](Cc1ccc2ccccc2c1)C(=O)O; d(aIle) = CC[C@H](C)[C@@H](N)C(=O)O; d(aThr) = C[C@@H](O)[C@@H](N)C(=O)O; Hexanoyl(5-Me) = CC(C)CCCC(=O)*; Orn = NCCC[C@H](N)C(=O)O; Dhb = C/C=C(\N)C(=O)O
Readings of GI50 for the listed compounds

{"columns": ["Compound", "Measurement"],
 "data": [
  ["C/C=C1\\NC(=O)[C@H](Cc2ccc3ccccc3c2)NC(=O)[C@@H](C(C)C)NC(=O)[C@@H]([C@@H](C)CC)NC(=O)[C@H](NC(=O)[C@H](NC(=O)[C@H](CCCN)NC(=O)[C@H]2CCCN2C(=O)[C@H](NC(=O)[C@@H](NC(=O)[C@@H](NC(=O)[C@H](NC(=O)CCCC(C)C)C(C)C)[C@@H](C)O)C(C)C)C(C)C)[C@@H](C)CC)[C@@H](C)OC(=O)[C@H](C(C)C)NC1=O [Compound 85, [Nal^3]-KF] ({Hexanoyl(5-Me)}-[dV]TV[dV][dP][Orn][d(aIle)][d(aThr)][d(aIle)][dV][2Nal][Dhb]V; ester 8-C)", "49.8 nM"]
]}

Now turn to the next compound.
Exercise: Entry under review: C/C=C1\NC(=O)[C@H](Cc2ccccc2)NC(=O)[C@@H](C(C)C)NC(=O)[C@@H]([C@@H](C)CC)NC(=O)[C@H](NC(=O)[C@H](NC(=O)[C@H](CCCN)NC(=O)[C@H]2CCCN2C(=O)[C@H](NC(=O)[C@@H](NC(=O)[C@H](CCC(N)=O)NC(=O)[C@H](NC(=O)CCCC(C)C)C(C)C)C(C)C)C(C)C)[C@@H](C)CC)[C@@H](C)OC(=O)[C@H](C(C)C)NC1=O [Compound 119, [Gln^12]-KF] ({Hexanoyl(5-Me)}-[dV]QV[dV][dP][Orn][d(aIle)][d(aThr)][d(aIle)][dV]F[Dhb]V; ester 8-C) . Reported GI50?
Key: 651 nM

---

Test system: SK-BR-3
Experiment: SRB colorimetric assay of cell growth and viability, SK-BR-3
Type: cell-based, human
Conditions: 48 hours exposure
Description: The finality of this assay is to interrupt the growth of a “in vitro” tumor cell culture by means a continued exhibition of the cells to the sample to be testing. […] Cells are seeded in 96 well microtiter plates, at 5×10^3 cells per well in aliquots of 195 μL medium, and they are allowed to attach to the plate surface by growing in drug free medium for 18 hours. […] Optical densities are read on a automated spectrophotometric plate reader at a single wavelength of 490 nm. […]
Where a SMILES comes first, the peptide text is derived from it. Bridges are numbered along the chain shown (N, C = ends). [ ]: non-standard residue; d: D form. The star is where a group is joined. d(aIle) = CC[C@H](C)[C@@H](N)C(=O)O; d(aThr) = C[C@@H](O)[C@@H](N)C(=O)O; Hexanoyl(5-Me) = CC(C)CCCC(=O)*; Orn = NCCC[C@H](N)C(=O)O; Dhb = C/C=C(\N)C(=O)O
Reported Metric: GI50 (µM)
State the answer as a number, implicitly in µM.

Exercise: Entry under review: C/C=C1\NC(=O)[C@H](Cc2ccccc2)NC(=O)[C@@H](C(C)C)NC(=O)[C@@H]([C@@H](C)CC)NC(=O)[C@H](NC(=O)[C@H](NC(=O)[C@H](CCCN)NC(=O)[C@H]2CCCN2C(=O)[C@H](NC(=O)[C@@H]2CCCN2C(=O)[C@@H](NC(=O)[C@H](NC(=O)CCCC(C)C)C(C)C)[C@@H](C)O)C(C)C)[C@@H](C)CC)[C@@H](C)OC(=O)[C@H](C(C)C)NC1=O [Compound 47, [Pro^11]-KF] ({Hexanoyl(5-Me)}-[dV]TP[dV][dP][Orn][d(aIle)][d(aThr)][d(aIle)][dV]F[Dhb]V; ester 8-C) . Reported GI50?
Key: 6.78

Exercise: Entry under review: C/C=C1\NC(=O)[C@H](Cc2ccccc2)NC(=O)[C@@H](C(C)C)NC(=O)[C@@H](C(C)CC)NC(=O)[C@H](NC(=O)[C@H](NC(=O)[C@H](CCCN)NC(=O)[C@H]2CCCN2C(=O)[C@H](NC(=O)[C@@H](NC(=O)[C@@H](NC(=O)[C@H](NC(=O)CCC(C)CC)C(C)C)C(C)O)C(C)C)C(C)C)C(C)CC)C(C)OC(=O)[C@H](C(C)C)NC1=O (stereo partly drawn) [Compound 1] . Reported GI50?
Key: 0.0434

Exercise: Entry under review: C/C=C1\NC(=O)[C@H](Cc2ccccc2)NC(=O)[C@@H](C(C)C)NC(=O)[C@@H]([C@@H](C)CC)NC(=O)[C@H](NC(=O)[C@H](NC(=O)[C@H](CCCN)NC(=O)[C@H]2CCCN2C(=O)[C@H](NC(=O)[C@H](CCC(=O)O)NC(=O)[C@@H](NC(=O)[C@H](NC(=O)CCCC(C)C)C(C)C)[C@@H](C)O)C(C)C)[C@@H](C)CC)[C@@H](C)OC(=O)[C@H](C(C)C)NC1=O [Compound 51, [Glu^11]-KF] ({Hexanoyl(5-Me)}-[dV]TE[dV][dP][Orn][d(aIle)][d(aThr)][d(aIle)][dV]F[Dhb]V; ester 8-C) . Reported GI50?
Key: 6.63
